The values you see were collected from paper PMC10247784.

Target: mouse Tas2r105 (Mus musculus)
Construct: expressed in transfected cells; host or cells: HEK293T-Gα16gust44
Sequence (Q9JKT4 whole entry): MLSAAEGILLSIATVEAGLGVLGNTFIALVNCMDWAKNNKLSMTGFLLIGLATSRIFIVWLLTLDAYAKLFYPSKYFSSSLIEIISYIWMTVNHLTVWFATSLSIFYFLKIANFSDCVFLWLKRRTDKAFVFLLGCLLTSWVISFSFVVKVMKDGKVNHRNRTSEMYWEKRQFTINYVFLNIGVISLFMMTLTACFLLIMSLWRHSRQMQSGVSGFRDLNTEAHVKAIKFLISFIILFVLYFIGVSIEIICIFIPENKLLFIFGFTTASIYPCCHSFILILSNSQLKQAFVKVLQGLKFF
Assay: Calcium imaging assay (FLIPR), HEK293T-Gα16gust44 cells transfected with mouse Tas2r105
Type: cell-based
Conditions: Time 60.781 s
Assign RLU to each entry below.
Answers are plain numbers, in RLU.

Observe how each entry below is paired with its result.
C[C@H](CCC(=O)O)[C@H]1CC[C@H]2[C@@H]3CC[C@@H]4C[C@H](O)CC[C@]4(C)[C@H]3CC[C@]12C = 110.605
C[C@H](CCC(=O)NCC(=O)O)[C@H]1CC[C@H]2[C@@H]3[C@H](O)C[C@@H]4C[C@H](O)CC[C@]4(C)[C@H]3C[C@H](O)[C@]12C = 363.761
C[C@H](CCC(=O)O)[C@H]1CC[C@H]2[C@@H]3[C@H](O)C[C@@H]4C[C@H](O)CC[C@]4(C)[C@H]3C[C@H](O)[C@]12C = 322.244

Next molecule, please.
Recorded RLU (molecule C[C@H](CCC(=O)O)[C@H]1CC[C@H]2[C@@H]3CC[C@@H]4C[C@H](O)CC[C@]4(C)[C@H]3C[C@H](O)[C@]12C ): 24.5618

----------
Molecular target: human TAS2R1 (Homo sapiens, UniProt Q9NYW7)
Construct: expressed in transfected cells; host or cells: HEK293T-Gα16gust44
Experiment: Calcium imaging assay (FLIPR), HEK293T-Gα16gust44 cells transfected with human TAS2R1
Assay type: cell-based
Details: Time 126.796 s
measured-endpoint: RLU (RLU)
One number for each entry, in RLU.

Example entries and their recorded answers appear below.
C[C@H](CCC(=O)O)[C@H]1CC[C@H]2[C@@H]3CC[C@@H]4C[C@H](O)CC[C@]4(C)[C@H]3CC[C@]12C [Lithocholic Acid, lithocholic acid] = 820.705
C[C@H](CCC(=O)O)[C@H]1CC[C@H]2[C@@H]3[C@H](O)C[C@@H]4C[C@H](O)CC[C@]4(C)[C@H]3C[C@H](O)[C@]12C [Cholic Acid, cholic acid] = 440.735
C[C@H](CCC(=O)O)[C@H]1CC[C@H]2[C@@H]3[C@H](O)C[C@@H]4C[C@H](O)CC[C@]4(C)[C@H]3CC[C@]12C [Chenodeoxycholic Acid, chenodeoxycholic acid] = 601.503

Let us examine a further case.
RLU reported for this molecule C[C@H](CCC(=O)O)[C@H]1CC[C@H]2[C@@H]3[C@@H](O)C[C@@H]4C[C@H](O)CC[C@]4(C)[C@H]3CC[C@]12C [Ursodeoxycholic Acid, ursodeoxycholic acid] : 306.062

----------
Molecular target: human TAS2R1 (Homo sapiens, UniProt Q9NYW7)
Construct: expressed in transfected cells; host or cells: HEK293T-Gα16gust44
Sequence (Q9NYW7 1-299): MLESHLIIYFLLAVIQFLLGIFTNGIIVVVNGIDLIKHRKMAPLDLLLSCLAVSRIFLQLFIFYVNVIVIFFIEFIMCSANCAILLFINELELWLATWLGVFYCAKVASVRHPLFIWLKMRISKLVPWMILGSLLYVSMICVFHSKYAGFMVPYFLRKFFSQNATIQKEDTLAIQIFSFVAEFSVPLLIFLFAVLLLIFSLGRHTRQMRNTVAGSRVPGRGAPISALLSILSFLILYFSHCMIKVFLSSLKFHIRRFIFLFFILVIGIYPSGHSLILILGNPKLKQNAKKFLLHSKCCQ
Experiment: Calcium imaging assay (FLIPR), HEK293T-Gα16gust44 cells transfected with human TAS2R1
Type: cell-based
Details: Time 86.796 s
measured-endpoint: RLU

Below, 3 molecules whose answers are already recorded.
C[C@H](CCC(=O)O)[C@H]1CC[C@H]2[C@@H]3[C@@H](O)C[C@@H]4C[C@H](O)CC[C@]4(C)[C@H]3CC[C@]12C = 545.003 RLU
C[C@H](CCC(=O)O)[C@H]1CC[C@H]2[C@@H]3[C@H](O)C[C@@H]4C[C@H](O)CC[C@]4(C)[C@H]3C[C@H](O)[C@]12C = 660.013 RLU
C[C@H](CCC(=O)O)[C@H]1CC[C@H]2[C@@H]3CC[C@@H]4C[C@H](O)CC[C@]4(C)[C@H]3CC[C@]12C = 870.09 RLU

// next item, RLU requested
GET /value?item= C[C@H](CCC(=O)O)[C@H]1CC[C@H]2[C@@H]3[C@H](O)C[C@@H]4C[C@H](O)CC[C@]4(C)[C@H]3CC[C@]12C &field=RLU returns 757.585 RLU
